B1: Fructose-1,6-bisphosphatase 1 (Homo sapiens), P09467 (parent)
chain: MADQAPFDTDVNTLTRFVMEEGRKARGTGELTQLLNSLCTAVKAISSAVRKAGIAHLYGIAGSTNVTGDQVKKLDVLSNDLVMNMLKSSFATCVLVSEEDKHAIIVEPEKRGKYVVCFDPLDGSSNIDCLVSVGTIFGIYRKKSTDEPSEKDALQPGRNLVAAGYALYGSATMLVLAMDCGVNCFMLDPAIGEFILVDKDVKIKKKGKIYSLNEGYARDFDPAVTEYIQRKKFPPDNSAPYGARYVGSMVADVHRTLVYGGIFLYPANKKSPNGKLRLLYECNPMAYVMEKAGGMATTGKEAVLDVIPTDIHQRAPVILGSPDDVLEFLKVYEKHSAQ
partner: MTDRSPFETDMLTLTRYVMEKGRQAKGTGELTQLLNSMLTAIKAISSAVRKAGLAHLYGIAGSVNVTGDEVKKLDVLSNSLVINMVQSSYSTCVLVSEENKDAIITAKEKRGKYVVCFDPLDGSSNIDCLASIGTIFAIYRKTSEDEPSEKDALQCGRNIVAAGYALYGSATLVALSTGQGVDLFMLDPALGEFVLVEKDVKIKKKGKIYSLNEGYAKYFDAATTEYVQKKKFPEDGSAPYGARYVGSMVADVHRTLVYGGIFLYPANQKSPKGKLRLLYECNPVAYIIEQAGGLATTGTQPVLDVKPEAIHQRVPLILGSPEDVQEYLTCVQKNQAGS

Variants of: B1
Settings: with FBP2, O00757
assay-endpoint: effect of a mutation on the interaction

[[record]]
variant_notation = "F233I"
result = "with no effect"

[[record]]
variant_notation = "R218K"
result = "with no effect"

